biological target: T1, human CD4 on cells (SKW3 cells; human PBMCs) (human, UniProt P01730 26-458); test: FACS binning on SKW3 cells pre-incubated with supernatant; competitor RPA-T4-PE-Dazzle 594, its signal read; background 783, max binding 15000
T1 construct: whole, on cells; SKW3 CD4 knockout cells served as the negative cell line; also called hCD4
Provide the recorded SKW3 FACS Binning RPA-T4-PE-Dazzle 594 for the entries that follow.
Quick one: just the number, no unit, thanks!

Short answer for 75110_12C19A (antibody, IgG1, V domains shown, Tested as non-clonal AlivaMab Mouse Kappa hybridoma supernatant: human variable domains and human kappa, mouse Fc) VH: EVQLVESGGGLVQPGGSLRLSCAASGFTFSSYWMSWVRQAPGKGLEWVANIKEDGSDKYYVDSVKGRFTISRDNAKNSLYLQMNSLRAEDTAVHYCVREGGQWLALDYWGQGTLVTVSS VL: DIQMTQSPSSVSGSVGDRVTITCRASQGISSWLAWYQQKPGKAPKLLIYGASSLQSGVPSRFSGSGSGTDFTLTISSLQPEDFVTYYCQQANSFPWTFGQGTKVEIK : SKW3 FACS Binning RPA-T4-PE-Dazzle 594 was 11900

Short answer for 75110_06D16A (antibody, V domains shown, Tested as non-clonal AlivaMab Mouse Kappa hybridoma supernatant: human variable domains and human kappa, mouse Fc (detected with anti-mouse Fc)) VH: QVQLQQWGAGLLKPSETLSLTCAVYGGSFSGYYWSWIRQPPGKGLEWIGEINHSGSTNYNPSLKSRVTISVVTSKNQFSLKLSSVTAADTAVYYCARVLNWFDPWGQGTLVTVSS VL: DIQMTQSPSSVSASVGDRVTITCRASQDIADWLAWYQQKPGKAPKLLIYAASSFQSGVPSRFSGSGSGTDFTLTISSLQPEDFATYFCQQANSFPYTFGQGTKLEIK : SKW3 FACS Binning RPA-T4-PE-Dazzle 594 was 21300
